Entry source: PubChem BioAssay AID2060497

Tested on: 317291-083-R-J1-PDC complex spheroids, viability;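 further: spheroids exposed to compounds for one week before readout; percent viability relative to DMSO vehicle wells taken as 100%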
assayProtocol: Anticancer human tumor 317291-083-R-J1-PDC patient-derived soft tissue sarcoma cell line growth inhibition [GQUAD]
conditionsUsed: second compound 0.1 µM; first compound 0.316 µM; stronger effect = lower value
Excerpt: DNA G-quadruplex Stabilizer Agents in Combinations in Complex Spheroids A high-throughput screen of multi-cell type tumor spheroids was designed to identify active combinations of DNA G-quadruplex stabilizer agents and targeted small molecules. […] Compounds. […] If the clinical Cmax for an agent had not been determined, the highest concentration tested was 10 microM. […]
readoutLabel: viability, T/C (%)
The figure you give is taken to be in %; do not add the unit.

INSERT INTO measurements (compound, measurement) VALUES
  ('CC(C)(O)C1CCC(Nc2ccc3ncc(-c4cccc(C(F)(F)F)c4)n3n2)CC1 (configuration not stated) + CN(C)c1ccc(Nc2c3ccc(NC(=O)CCN4CCCC4)cc3nc3cc(NC(=O)CCN4CCCC4)ccc23)cc1', 102),
  ('CC1COCCN1c1cc(C2(S(C)(=N)=O)CC2)nc(-c2ccnc3[nH]ccc23)n1 (configuration not stated) + CN(C)c1ccc(Nc2c3ccc(NC(=O)CCN4CCCC4)cc3nc3cc(NC(=O)CCN4CCCC4)ccc23)cc1', 82.6),
  ('CCc1c2c(nc3ccc(O)cc13)-c1cc3c(c(=O)n1C2)COC(=O)[C@]3(O)CC + Cc1cnc(CNC(=O)c2c(=O)c3ccc(N4CCCN(C)CC4)nc3n3c2sc2ccccc23)cn1', 3.08),
  ('C=CC(=O)N1CCN(c2nc(=O)n(-c3c(C)ccnc3C(C)C)c3nc(-c4c(O)cccc4F)c(F)cc23)C(C)C1 (configuration not stated) + Cc1cnc(CNC(=O)c2c(=O)c3ccc(N4CCCN(C)CC4)nc3n3c2sc2ccccc23)cn1', 91),
  ('COc1ncnc(C2CC2)c1-c1ncc2cnn(Cc3ccc(-c4nc(C(F)(F)F)cn4C(C)C)cc3)c2n1 + Cc1cnc(CNC(=O)c2c(=O)c3ccc(N4CCCN(C)CC4)nc3n3c2sc2ccccc23)cn1', 47.3);

Prompt line: Given the entry Cc1cccc(N(C)C(=O)C2C(O)CCN2c2nc(C)cc(C(F)(F)F)c2C#N)c1 (configuration not stated) + Cc1[nH]c2ccc(F)cc2c1-c1nc2c3cccnc3c3ncccc3c2[nH]1 , report its measured viability, T/C.
Response line: 118

Prompt line: Given the entry O=C(NO)c1cnc(N2CCN(S(=O)(=O)c3ccc4ccccc4c3)CC2)nc1 + CN(C)c1ccc(Nc2c3ccc(NC(=O)CCN4CCCC4)cc3nc3cc(NC(=O)CCN4CCCC4)ccc23)cc1 , report its measured viability, T/C.
Response line: 7.56

Prompt line: Given the entry CC1COCCN1c1cc(C2(O)CC3CCC(C2)O3)c2cnn(-c3ccn[nH]3)c2n1 (configuration not stated) + Cc1[nH]c2ccc(F)cc2c1-c1nc2c3cccnc3c3ncccc3c2[nH]1 , report its measured viability, T/C.
Response line: 13.9

Prompt line: Given the entry CC1COCCN1c1cc(C2(O)CC3CCC(C2)O3)c2cnn(-c3ccn[nH]3)c2n1 (configuration not stated) + Cc1cnc(CNC(=O)c2c(=O)c3ccc(N4CCCN(C)CC4)nc3n3c2sc2ccccc23)cn1 , report its measured viability, T/C.
Response line: 10.6

Prompt line: Given the entry Cn1ncnc1[C@H]1c2n[nH]c(=O)c3cc(F)cc(c23)N[C@@H]1c1ccc(F)cc1 + CN(C)c1ccc(Nc2c3ccc(NC(=O)CCN4CCCC4)cc3nc3cc(NC(=O)CCN4CCCC4)ccc23)cc1 , report its measured viability, T/C.
Response line: 65.3

Prompt line: Given the entry COc1ccc([C@@H](O)c2cc(-c3ncnc4cc(N5CCOCC5)ccc34)c(F)cc2Cl)nn1 + CN(C)c1ccc(Nc2c3ccc(NC(=O)CCN4CCCC4)cc3nc3cc(NC(=O)CCN4CCCC4)ccc23)cc1 , report its measured viability, T/C.
Response line: 104

Prompt line: Given the entry COc1cccc2c1C(=O)c1c(O)c3c(c(O)c1C2=O)CC(O)(C(=O)CO)CC3OC1CC(N)C(O)C(C)O1 (configuration not stated) + CN(C)c1ccc(Nc2c3ccc(NC(=O)CCN4CCCC4)cc3nc3cc(NC(=O)CCN4CCCC4)ccc23)cc1 , report its measured viability, T/C.
Response line: 22.2
